# target-entity: T1, full-length recombinant human PAD4 (human, UniProt Q9UM07 1-663)
# T1 construct: Full-length recombinant; also called peptidylarginine deiminase 4
# T1 sequence (Q9UM07 whole entry): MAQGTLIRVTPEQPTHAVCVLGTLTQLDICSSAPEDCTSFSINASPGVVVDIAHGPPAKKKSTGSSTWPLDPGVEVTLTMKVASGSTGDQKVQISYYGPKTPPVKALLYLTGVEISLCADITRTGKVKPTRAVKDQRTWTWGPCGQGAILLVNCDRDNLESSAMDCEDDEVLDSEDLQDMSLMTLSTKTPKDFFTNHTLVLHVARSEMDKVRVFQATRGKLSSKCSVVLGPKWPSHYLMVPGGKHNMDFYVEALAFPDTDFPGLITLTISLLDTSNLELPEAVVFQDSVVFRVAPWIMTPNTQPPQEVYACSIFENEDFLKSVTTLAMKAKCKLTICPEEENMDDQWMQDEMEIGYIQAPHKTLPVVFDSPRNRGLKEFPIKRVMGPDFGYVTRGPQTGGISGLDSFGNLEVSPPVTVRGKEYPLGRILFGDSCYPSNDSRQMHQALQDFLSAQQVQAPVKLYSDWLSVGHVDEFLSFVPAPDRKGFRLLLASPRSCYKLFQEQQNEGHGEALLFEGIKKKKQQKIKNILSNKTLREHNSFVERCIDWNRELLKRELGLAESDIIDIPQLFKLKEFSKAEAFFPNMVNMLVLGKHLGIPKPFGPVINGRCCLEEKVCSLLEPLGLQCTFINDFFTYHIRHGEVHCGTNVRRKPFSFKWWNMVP
# assay: ELISA, immobilized human PAD4
assay-metric: O.D. 490/630 at 0.5 µg/mL
Format: numeric value only, no unit, no commentary.

Worked set:
binder	O.D. 490/630 at 0.5 µg/mL
humanized anti-PAD4 antibody derived from G8, VH H4.32 / VL L4.29 (antibody, IgG1, V domains shown, IgG1 kappa; also called G8 H4.32/L4.29) VH: EVQLLESGGGLVQPGGSLRLSCAASGFTFSTYAMGWVRQAPGKGLEFVAAIRNDGSWTGYGAAVKGRVTISRDNSKNTVYLQMNSLRAEDTAVYYCAKYTGSSGGSIGAWGQGTLVTVSS VL: SYELTQPPSVSVSPGQTARITCSGGNRNYYYGWYQQKPGQAPVTVIYANDKRPSGIPERFSGSNSGSTTTLTISGVQAEDEADYYCGTADTGKYVFGGGTKLTVLG	1.84
humanized anti-PAD4 antibody derived from G8, VH H4.32 / VL L4.17 (antibody, IgG1, V domains shown, IgG1 kappa; also called G8 H4.32/L4.17) VH: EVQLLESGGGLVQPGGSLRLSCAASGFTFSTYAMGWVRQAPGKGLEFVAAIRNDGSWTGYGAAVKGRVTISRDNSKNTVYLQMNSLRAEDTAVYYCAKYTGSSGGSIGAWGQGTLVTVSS VL: SYELTQPPSVSVSPGQTARITCSGGNRNYYYGWYQQKPGQAPVTVIYANDKRPSGIPERFSGSTSGNTTTLTISGVQAEDEADYYCGTADTGKYVFGGGTKLTVLG	1.83
humanized anti-PAD4 antibody derived from G8, VH H4.32 / VL L4.06 (antibody, IgG1, V domains shown, IgG1 kappa; also called G8 H4.32/L4.06) VH: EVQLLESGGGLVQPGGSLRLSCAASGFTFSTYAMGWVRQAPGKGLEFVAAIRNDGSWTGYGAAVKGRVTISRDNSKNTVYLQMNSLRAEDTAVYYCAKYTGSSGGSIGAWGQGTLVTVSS VL: SYELTQPPSVSVSPGQTARITCSGGNRNYYYGWYQQKPGQAPVTVIYANDKRPSGIPERFSGSYSGNTTTLTISGVQAEDEADYYCGTADTGKYVFGGGTKLTVLG	1.81
humanized anti-PAD4 antibody derived from H7, VH H4.32 / VL L4.00 (antibody, IgG1, V domains shown, IgG1 kappa; also called H7 H4.32/L4.00) VH: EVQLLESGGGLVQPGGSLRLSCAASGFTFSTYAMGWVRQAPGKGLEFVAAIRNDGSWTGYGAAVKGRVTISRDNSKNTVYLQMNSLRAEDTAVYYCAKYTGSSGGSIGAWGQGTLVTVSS VL: SYELTQPPSVSVSPGQTARITCSGGSGRYYYGWYQQKPGQAPVLVIYSSTHRPSGIPERFSGSSSGTTVTLTISGVQAEDEADYYCGTADSSSYVFGGGTKLTVLG	1.81
humanized anti-PAD4 antibody derived from G8, VH H4.15 / VL L4.29 (antibody, human IgG1, kappa, V domains shown, IgG1 kappa; also called G8 H4.15/L4.29) VH: EVQLLESGGGLVQPGGSLRLSCAASGFTFSTYAMGWVRQAPGKGLEFVSAIRNDGSWTGYGAAVKGRFTISRDNSKNTVYLQMNSLRAEDTAVYYCAKYTGSSGGSIGAWGQGTLVTVSS VL: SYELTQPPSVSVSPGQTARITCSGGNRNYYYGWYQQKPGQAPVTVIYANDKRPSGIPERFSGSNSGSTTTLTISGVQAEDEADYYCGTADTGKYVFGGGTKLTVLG	1.81

Here is the next item to consider.
// sample humanized anti-PAD4 antibody derived from H7, VH H4.15 / VL L4.17 (antibody, IgG1, V domains shown, IgG1 kappa; also called H7 H4.15/L4.17) VH: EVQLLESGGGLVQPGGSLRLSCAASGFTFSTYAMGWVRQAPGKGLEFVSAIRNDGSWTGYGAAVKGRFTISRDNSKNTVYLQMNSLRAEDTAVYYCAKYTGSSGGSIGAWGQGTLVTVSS VL: SYELTQPPSVSVSPGQTARITCSGGSGRYYYGWYQQKPGQAPVTVIYSSTHRPSGIPERFSGSTSGNTTTLTISGVQAEDEADYYCGTADSSSYVFGGGTKLTVLG , its O.D. 490/630 at 0.5 µg/mL was 1.82

These measurements were taken from patent US20180044434A1.
